meta.source: the supplement of paper PMC3545927

target: furin, P09958; experiment: furin cleavage Z-score vs untreated control; higher = more cleavage, active = 3.5 or more, inactive = 1 or less, 8 variable residues between constant flanks; conditions: 15 min;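 also: purified furin at 1:10 enzyme:substrate in 50 mM HEPES pH 7.5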
Sequence (P09958 whole entry): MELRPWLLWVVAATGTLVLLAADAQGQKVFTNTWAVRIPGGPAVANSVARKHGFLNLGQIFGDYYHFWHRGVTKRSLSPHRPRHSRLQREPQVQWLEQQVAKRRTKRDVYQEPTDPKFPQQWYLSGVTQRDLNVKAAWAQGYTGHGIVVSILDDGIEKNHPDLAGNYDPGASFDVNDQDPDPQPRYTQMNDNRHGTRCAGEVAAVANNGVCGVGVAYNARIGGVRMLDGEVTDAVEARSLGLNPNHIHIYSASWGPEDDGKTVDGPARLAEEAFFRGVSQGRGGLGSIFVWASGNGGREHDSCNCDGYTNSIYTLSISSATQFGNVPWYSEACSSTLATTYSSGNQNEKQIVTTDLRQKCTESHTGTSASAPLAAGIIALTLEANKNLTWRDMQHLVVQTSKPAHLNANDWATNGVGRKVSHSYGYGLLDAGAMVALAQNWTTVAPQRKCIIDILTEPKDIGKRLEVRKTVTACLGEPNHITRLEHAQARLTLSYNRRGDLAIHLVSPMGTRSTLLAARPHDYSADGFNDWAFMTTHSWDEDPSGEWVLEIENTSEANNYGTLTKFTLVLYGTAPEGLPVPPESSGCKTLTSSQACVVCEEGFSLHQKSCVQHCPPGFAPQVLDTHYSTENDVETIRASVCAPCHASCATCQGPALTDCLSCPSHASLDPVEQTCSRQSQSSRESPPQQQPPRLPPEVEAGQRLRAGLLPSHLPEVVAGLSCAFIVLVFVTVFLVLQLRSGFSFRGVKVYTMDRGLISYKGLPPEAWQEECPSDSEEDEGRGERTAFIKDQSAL
This is one part of the list. The true hit rate is not given.
I'd appreciate it if you could supply furin cleavage Z-score values for the items below.
Please respond with just the number, no unit label.

response.value for CAICTTPCSGAGNASASA [HC1944] (field: furin cleavage Z-score) = -0.982

response.value for CAKRERNKRSAGNASASA [FS-1637] (field: furin cleavage Z-score) = 14.4

response.value for CAAGAAIGSVAGNASASA [HC1078] (field: furin cleavage Z-score) = 0.457

response.value for CARVRKSLKKAGNASASA [FS-2534] (field: furin cleavage Z-score) = 3.69

response.value for CAEVPCHNPSAGNASASA [HC2381] (field: furin cleavage Z-score) = 0.398

response.value for CARVRRNKRSAGNASASA [FS-1275] (field: furin cleavage Z-score) = 10.9

response.value for CAGPVRLKKKAGNASASA [FS-1527] (field: furin cleavage Z-score) = -1.68
